assay: Absorption spectra of dye-containing processed films (λmax), C-41 process; format: physicochemical; settings: Table V, Example 6; coupler solvent S1
quantity-kind: λmax(nm) (+-0.5)

>>> reported_value("CCCCCCCCCCCCNS(=O)(=O)c1cc(Cl)c(N2N=C(Nc3ccc(C#N)cc3Cl)C(Sc3cc(C(C)(C)CC(C)(C)C)ccc3OCCCC)C2=O)c(Cl)c1 (stereo not drawn)")
550.5
>>> reported_value("CCCCCCCCCCCCS(=O)(=O)c1cc(Cl)c(N2N=C(Nc3ccc(S(C)(=O)=O)cc3Cl)C(Sc3cc(C(C)(C)CC(C)(C)C)ccc3OCCCC)C2=O)c(Cl)c1 (stereo not drawn)")
550.5
>>> reported_value("CCCCCCCCCCCCS(=O)(=O)c1cc(Cl)c(N2N=C(Nc3ccc(C#N)cc3Cl)C(Sc3cc(C(C)(C)CC(C)(C)C)ccc3OCCCC)C2=O)c(Cl)c1 (stereo not drawn)")
550.5

====

assay: Absorption spectra of dye-containing processed films (λmax), C-41 process; assay type: physicochemical; settings: Table V, Example 6; coupler solvent S1
quantity-kind: λmax(nm) (+-0.5)

>>> reported_value("CCCCCCCCCCCCS(=O)(=O)c1cc(Cl)c(N2N=C(Nc3ccc(S(=O)(=O)N4CCOCC4)cc3Cl)C(Sc3cc(C(C)(C)CC(C)(C)C)ccc3OCCCC)C2=O)c(Cl)c1 (stereo not drawn) [Coupler M15]")
551.0
>>> reported_value("CCCCCCCCCCCCNS(=O)(=O)c1cc(Cl)c(N2N=C(Nc3ccc(S(=O)(=O)N4CCOCC4)cc3Cl)C(Sc3cc(C(C)(C)CC(C)(C)C)ccc3OCCCC)C2=O)c(Cl)c1 (stereo not drawn) [Coupler M12]")
549.5
>>> reported_value("CCCCCCCCCCCCNS(=O)(=O)c1cc(Cl)c(N2N=C(Nc3ccc(S(C)(=O)=O)cc3Cl)C(Sc3cc(C(C)(C)CC(C)(C)C)ccc3OCCCC)C2=O)c(Cl)c1 (stereo not drawn) [Coupler M13]")
549.5
